- Assay target: hNLRP3 inflammasome (Homo sapiens, UniProt Q96P20)
- Construct: endogenous in cells; host or cells: THP-1 cells, PMA-differentiated
- Sequence (Q96P20 whole entry): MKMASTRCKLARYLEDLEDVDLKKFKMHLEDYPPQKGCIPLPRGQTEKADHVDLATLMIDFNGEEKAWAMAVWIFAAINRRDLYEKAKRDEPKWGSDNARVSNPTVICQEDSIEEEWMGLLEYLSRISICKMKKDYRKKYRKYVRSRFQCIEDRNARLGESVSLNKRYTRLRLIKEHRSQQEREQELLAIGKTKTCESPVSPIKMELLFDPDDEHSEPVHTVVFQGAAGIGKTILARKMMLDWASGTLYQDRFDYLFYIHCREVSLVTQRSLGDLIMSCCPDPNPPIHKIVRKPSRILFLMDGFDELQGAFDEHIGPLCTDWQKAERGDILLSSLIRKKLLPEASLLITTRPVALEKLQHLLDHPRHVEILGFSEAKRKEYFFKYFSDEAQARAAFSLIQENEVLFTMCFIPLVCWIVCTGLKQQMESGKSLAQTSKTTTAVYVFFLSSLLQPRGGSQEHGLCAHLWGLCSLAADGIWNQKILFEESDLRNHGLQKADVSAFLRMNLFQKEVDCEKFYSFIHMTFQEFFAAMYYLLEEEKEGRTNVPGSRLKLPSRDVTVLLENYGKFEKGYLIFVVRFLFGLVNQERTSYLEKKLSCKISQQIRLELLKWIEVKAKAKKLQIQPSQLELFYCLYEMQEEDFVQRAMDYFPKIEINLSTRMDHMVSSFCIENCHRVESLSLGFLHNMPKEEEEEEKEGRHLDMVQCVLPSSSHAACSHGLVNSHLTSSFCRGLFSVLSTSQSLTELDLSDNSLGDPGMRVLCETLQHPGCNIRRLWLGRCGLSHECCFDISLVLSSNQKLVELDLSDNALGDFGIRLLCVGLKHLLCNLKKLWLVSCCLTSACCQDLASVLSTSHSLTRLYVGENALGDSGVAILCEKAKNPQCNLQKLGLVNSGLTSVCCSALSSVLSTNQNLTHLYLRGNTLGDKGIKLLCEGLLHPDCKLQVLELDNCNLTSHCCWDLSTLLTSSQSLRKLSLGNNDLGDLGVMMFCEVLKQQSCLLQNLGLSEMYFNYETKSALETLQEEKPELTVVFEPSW
- Method summary: Agonistic effect on the expression of IL-1β in THP-1 cells after PMA-induced differentiation (HTRF)
- Assay type: cell-based
- Experimental context: IL-1β level, PMA-differentiated THP-1 cells, 6 hours
Rule: measured EC50 below 0.2 µM gets class 1; anything equal to or greater than 0.2 µM gets class 0.

Past entries and their recorded results:
>  <Compound>
C[C@@H](O)CNc1cc(N)nc2cc(-c3ccn[nH]3)sc12

>  <Qualitative label>
class 1

$$$$
>  <Compound>
COC[C@@H](C)Nc1cc(N)nc2cc(-c3ccn[nH]3)sc12

>  <Qualitative label>
class 0

$$$$
>  <Compound>
CCC(CC)Nc1cc(N)nc2cc(-c3ccn[nH]3)sc12 [Compound 113]

>  <Qualitative label>
class 1

$$$$
>  <Compound>
Cc1c(-c2cc[nH]n2)sc2c(NCC(C)(C)CO)cc(N)nc12

>  <Qualitative label>
class 0

$$$$
>  <Compound>
Nc1cc(NCC(F)F)c2sc(-c3ccn[nH]3)cc2n1 [Compound 116]

>  <Qualitative label>
class 1

$$$$

Asked: Identify whether the compound CN1CCN(CCNc2cc(N)nc3cc(-c4ccn[nH]4)sc23)CC1 records EC50 below 0.2 µM.
Given back: class 0

----------
- Assay target: hNLRP3 inflammasome (Homo sapiens, UniProt Q96P20)
- Construct: endogenous in cells; host or cells: THP-1 cells, PMA-differentiated
- Method summary: Agonistic effect on the expression of IL-1β in THP-1 cells after PMA-induced differentiation (HTRF)
- Type: cell-based
- Experimental context: IL-1β level, PMA-differentiated THP-1 cells, 6 hours
The label 1 is reserved for EC50 strictly under 0.1 µM; 0 covers values equal to or above it.

Worked examples, 3 molecules total:
>  <Smiles entry>
CC(=O)N1CCC(Nc2cc(N)nc3cc(-c4ccn[nH]4)sc23)CC1

>  <Qualitative label>
0

$$$$
>  <Smiles entry>
CC1(CNc2cc(N)nc3cc(-c4ccn[nH]4)sc23)COC1

>  <Qualitative label>
1

$$$$
>  <Smiles entry>
Nc1cc(N2CC[C@@H](O)C2)c2sc(-c3ccn[nH]3)cc2n1

>  <Qualitative label>
1

$$$$

Asked: State whether 0.1 µM exceeds EC50 recorded for Cn1cc(CNc2cc(N)nc3cc(-c4ccn[nH]4)sc23)cn1 .
Given back: 1

Asked: Here's an entry: Nc1cc(NCC2CC2)c2sc(-c3ccn[nH]3)cc2n1 . Is its EC50 below 0.1 µM?
Given back: 1

Asked: Does the reported EC50 of the following molecule sit strictly below 0.1 µM? CC(=O)N(C)CCCNc1cc(N)nc2cc(-c3ccn[nH]3)sc12
Given back: 0

Asked: Hi there! Is EC50 for Nc1cc(NCC(F)(F)c2ccccn2)c2sc(-c3ccn[nH]3)cc2n1 below 0.1 µM, do you know?
Given back: 1

Asked: Dear reviewer, please state whether Nc1cc(N2CCN(C3CC3)CC2)c2sc(-c3ccn[nH]3)cc2n1 has EC50 strictly beneath 0.1 µM.
Given back: 0

----------
- Assay target: hNLRP3 inflammasome (Homo sapiens, UniProt Q96P20)
- Construct: endogenous in cells; host or cells: THP-1 cells, PMA-differentiated
- Method summary: Agonistic effect on the expression of IL-1β in THP-1 cells after PMA-induced differentiation (HTRF)
- Type: cell-based
- Experimental context: IL-1β level, PMA-differentiated THP-1 cells, 6 hours
Value type: EC50 (µM)
Quick reminder: number only, in µM, skip the unit.

Below, 8 compounds whose answers are already recorded.
>  <Compound>
Nc1cc(NC(CCO)c2ccccc2)c2sc(-c3ccn[nH]3)cc2n1 (stereo not drawn)

>  <EC50, µM>
0.1

$$$$
>  <Compound>
CC[C@H](CO)Nc1cc(N)nc2cc(-c3ccn[nH]3)sc12

>  <EC50, µM>
0.09

$$$$
>  <Compound>
COC1(C)CCN(c2cc(N)nc3cc(-c4ccn[nH]4)sc23)CC1

>  <EC50, µM>
0.03

$$$$
>  <Compound>
Nc1cc(NC2CCOC2)c2sc(-c3ccn[nH]3)cc2n1 (stereo not drawn)

>  <EC50, µM>
0.1

$$$$
>  <Compound>
CC(C)CNc1cc(N)nc2cc(-c3ccn[nH]3)sc12

>  <EC50, µM>
0.03

$$$$
>  <Compound>
CC1(C)CN(c2cc(N)nc3cc(-c4ccn[nH]4)sc23)CCO1

>  <EC50, µM>
0.03

$$$$
>  <Compound>
COCCNc1cc(N)nc2c(C)c(-c3cc[nH]n3)sc12

>  <EC50, µM>
2.75

$$$$
>  <Compound>
CO[C@H](C)CNc1cc(N)nc2cc(-c3ccn[nH]3)sc12

>  <EC50, µM>
0.03

$$$$

Field: next compound
Asked: Data request, read-out EC50, for Nc1cc(N2CCOCC2)c2sc(-c3ccn[nH]3)cc2n1
Given back: 0.02
